Target or system 5-hydroxytryptamine receptor 7 (Homo sapiens, UniProt P34969): recorded Ki listed per item.
The figure you give is taken to be in nM; do not add the unit.

Observe how each entry below is paired with its result.
CC(C)c1cccc(OCCN2C3CCC2CC(NS(=O)(=O)c2cnn(C)c2)C3)c1 (stereo unspecified)
70
O=S(=O)(NC1CCN(CCOc2ccccc2C2CCCC2)CC1)c1cccc(Cl)c1
17
Nc1ccc(S(=O)(=O)NC2CCN(CCOc3ccccc3-c3ccccc3)CC2)cc1
26
O=S(=O)(NC1CCN(CCOc2ccccc2)CC1)c1ccc(F)cc1
855
CC(C)c1cccc(OCCN2C3CCC2CC(NS(=O)(=O)c2ccc(F)c(F)c2)C3)c1 (stereo unspecified)
9

Here is the next item to consider.
# value lookup — system 5-hydroxytryptamine receptor 7 (Homo sapiens, UniProt P34969), readout Ki, item CC(C)c1cccc(OCCN2C3CCC2CC(NS(=O)(=O)c2cc(F)ccc2F)C3)c1 (stereo unspecified)
4

// data source = ChEMBL document CHEMBL3758131
